Attribution: paper PMC7277225

molecular target: FOX-4 cephamycinase (class C β-lactamase) (Escherichia coli, UniProt Q9L387); construct: native FOX-4, purified from periplasmic fractions of E. coli; assay: biochemical; conditions: read-out: FOX-4 ^1 IC50
value.type: IC50 (µM)
Give the value, in units of µM, as a plain number.

Consider "O=C(Cc1cccs1)N[C@H](B(O)O)c1cccc(C(=O)O)c1" . Its measured IC50 is 0.032

----------
molecular target: FOX-4 cephamycinase (class C β-lactamase) (Escherichia coli, UniProt Q9L387); construct: native FOX-4, purified from periplasmic fractions of E. coli; test: X-ray crystal structure (soak, […] Å); IC50 with purified enzyme by nitrocefin hydrolysis; format: biochemical
value.type: pIC50
Scale: pIC50 equals -log10([C]), with [C] in mol/L.

pIC50 measured on "CC(C)(O/N=C(\C(=O)NCB(O)O)c1csc(N)n1)C(=O)O" = 6.96

----------
molecular target: FOX-4 cephamycinase (class C β-lactamase) (Escherichia coli); construct: native FOX-4, purified from periplasmic fractions of E. coli; test: steady-state kinetics, nitrocefin hydrolysis, […] min pre-incubation; assay type: biochemical; details: read-out: FOX-4 ^1 IC50
value.type: IC50 (nM)
Value expressed in nM; do not type the unit.

[
  {
    "compound": "CO/N=C(\\C(=O)NCB(O)O)c1csc(N)n1 [CTX-like]",
    "reading": 260
  }
]

Per the record, O=C(Cc1cccs1)N[C@@H](Cc1cccc(C(=O)O)c1)B(O)O [EC04] has IC50 of 420
